# targetOrSystem: human nerve growth factor (beta-NGF) (human, UniProt P01138 122-241)
# Sequence (P01138 122-241): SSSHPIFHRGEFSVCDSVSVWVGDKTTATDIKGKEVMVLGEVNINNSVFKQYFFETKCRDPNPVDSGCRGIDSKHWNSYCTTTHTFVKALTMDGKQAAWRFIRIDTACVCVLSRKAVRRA
# assayDetails: cell-based or functional assay
outcomeMeasure: IC50, FLIPR calcium mobilisation (nM)
Please state the figure in nM; there is no need to write the unit.

input: Give IC50, FLIPR calcium mobilisation for 1211G10 human IgG4 (antibody, V domains shown) VH: EVQLVQSGAEVRKPGSSVKVSCKAYGGTFSTYGISWVRQAPGQGLEWVGGIIPIFDTRNSAQSFQGRVTITADESTSTAYMEVSSLRSDDTAVYYCASSSRIYDMVSTLIPYYDMDVWGQGTMVTVSS VL: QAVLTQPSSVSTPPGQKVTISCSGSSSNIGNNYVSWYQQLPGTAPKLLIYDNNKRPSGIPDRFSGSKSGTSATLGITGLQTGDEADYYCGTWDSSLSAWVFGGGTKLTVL
output: 0.37

input: Give IC50, FLIPR calcium mobilisation for 1155H1 human IgG4 (antibody, V domains shown) VH: EVQLVQSGAEVKKPGSSVKVSCKASGGTFSTYGISWVRQAPGQGLEWIGGIIPIFDTGNSAQSFQGRVTITADESTSTAYMEVSSLRSDDTAVYYCASSSRIYDFHLANKGYYDMDVWGQGTMVTVSS VL: QAVLTQPSSVSTPPGQKATISCSGSSSNIGNNYVSWYQQLPGTAPKLLIYDNNKRPSGIPDRFSGSKSGTSATLDITGLQTGDEADYYCGTWDSSLSAWVFGGGTKLTVL
output: 0.35

Continuing:
input: Give IC50, FLIPR calcium mobilisation for 1126F1 human IgG4 (antibody, V domains shown) VH: EVQLVQTGAEVKKPGSSVKVSCKASGGTFSTYGISWVRQAPGQGLEWIGGIIPIFDTGNSAQSFQGRVTITADESTSTAYMEVSSLRSDDTAVYYCASSSRIYDANRQAVPYYDMDVWGQGTMVTVSS VL: QAVLTQPSSVSTPPGQMVTISCSGSSSDIGNNYVSWYQQLPGTAPKLLIYDNNKRPSGIPDRFSGSKSGTSATLGITGLQTGDEADYYCGTWDSSLSAWVFGGGTKLTVL
output: 0.35
